Molecular target: glucose-6-phosphate dehydrogenase-6-phosphogluconolactonase (Plasmodium falciparum 3D7)
Experiment: PfG6PD enzyme inhibitors, kinetic NADPH readout, dose response, orthogonal assay, biochemical, kinetic NADPH detection (AID 540269)
Details: purified PfG6PD-6PGL
value_type: IC50

Recorded result, N#CC1=C(N)Oc2c(O)cc3ccccc3c2C1c1ccsc1 (configuration not stated) , IC50: 55.6 µM

Further cases:
Recorded result, CCN(CC)c1ccc(NC(=O)c2cccc(C)c2)cc1S(=O)(=O)Nc1ccccc1OC , IC50: 31.3 µM

---

Molecular target: glucose-6-phosphate dehydrogenase-6-phosphogluconolactonase (Plasmodium falciparum 3D7)
Assay: PfG6PD enzyme inhibitors, kinetic NADPH readout, dose response, orthogonal assay, biochemical, kinetic NADPH detection (AID 540269)
Settings: purified PfG6PD-6PGL
Calls of active or inactive are those of the source. How the calls were made is not given here.
Respond only with the outcome that fits, drawn from TRUE (active), FALSE (inactive)

Record excerpt, results attached:
What did this assay record as the result for [O-]/[N+](=C\c1ccncc1)c1ccccc1 ?
FALSE

What did this assay record as the result for COc1cc(/C=C2\CC/C(=C\c3cc(OC)c(O)c(OC)c3)C2=O)cc(OC)c1O ?
FALSE

What did this assay record as the result for Cc1ccc(Cl)cc1NC1=C/C(=N\S(=O)(=O)c2cccs2)c2ccccc2C1=O ?
FALSE

What did this assay record as the result for COc1cc(C(=O)ON=C2C=C(C)C(=O)C(C)=C2)cc(OC)c1OC ?
FALSE

What did this assay record as the result for Oc1ccc(/C=N/N=C(c2ccccc2)c2ccccc2)c(O)c1O ?
TRUE

Further cases:
What did this assay record as the result for Cc1ccsc1/C=N\NC(=O)CC(=O)NCc1ccccc1 ?
FALSE

What did this assay record as the result for CCOC(=O)c1ccc(-n2c(N)c(C(=O)NCC3CCCO3)sc2=S)cc1 (stereo unspecified) ?
FALSE

What did this assay record as the result for CCOC(=O)c1c2ccc(OCC(=O)NN)cc2n2ccccc12 ?
TRUE

What did this assay record as the result for Cc1cccc(C(=O)Nc2nnc(S(=O)(=O)N3CCOCC3)s2)c1 ?
TRUE

What did this assay record as the result for Cc1ccc(NC(=O)c2cc(N3C(=O)C=CC3=O)ccc2Cl)cc1C ?
TRUE
